# melting point per record follows

>>> result("N#CCCn1nc(Nc2c(F)cc(Br)cc2F)nc(Nc2ccc(C#N)cc2)c1=O")
"246 to 247 °C"
>>> result("Cc1cc(CCC#N)cc(C)c1Oc1n[nH]c(=O)c(Nc2ccc(C#N)cc2)n1")
"351 to 352 °C"
>>> result("CCn1nc(Nc2c(C)cc(CCC#N)cc2C)nc(Nc2ccc(C#N)cc2)c1=O")
"243 to 245 °C"

Note: attention shifts to another entry.
**Query** Bench note: what melting point did Cc1cc(CCC#N)cc(C)c1Nc1nc(Nc2ccc(C#N)cc2)c(=O)n(C)n1 show?
**Result** 317 to 320 °C

----------
Below are pEC50 (-logEC50) values measured for HIV-1.
# print the numeric value only

Below, 4 compounds whose answers are already recorded.
>>> result("Cc1cc(CCC#N)cc(C)c1Nc1n[nH]c(=O)c(Nc2ccc(C#N)cc2)n1 [Compound 5]")
9.6
>>> result("COc1cc(CCC#N)c(Br)cc1Nc1n[nH]c(=O)c(Nc2ccc(C#N)cc2)n1")
9.0
>>> result("Cc1cc(CCC#N)cc(C)c1Nc1n[nH]c(=O)c(Nc2ccc(C#N)cc2)n1 [Compound 51]")
9.6
>>> result("N#Cc1ccc(Nc2nc(Nc3c(F)cc(I)cc3F)n[nH]c2=O)cc1 [Compound 1]")
9.5

**Query** Given the entry N#CCCn1nc(Nc2c(F)cc(Br)cc2F)nc(Nc2ccc(C#N)cc2)c1=O [Compound 11] , report its measured pEC50 (-logEC50).
**Result** 9.1

**Query** Looking for the measured pEC50 (-logEC50) of Cc1cc(CCC#N)cc(C)c1Nc1n[nH]c(=O)c(Nc2ccc(C#N)cc2)n1 [Compound 32] , can you help?
**Result** 8.9

----------
HIV-1 data, read-out pEC50 (-logEC50)
Just the number.

>>> result("Cn1nc(Nc2c(Br)cc(CCC#N)cc2Br)nc(Nc2ccc(C#N)cc2)c1=O [Compound 8]")
10.0
>>> result("CCn1nc(Nc2c(C)cc(CCC#N)cc2C)nc(Nc2ccc(C#N)cc2)c1=O")
9.7
>>> result("Cc1cc(C)c(Sc2n[nH]c(=O)c(Nc3ccc(C#N)cc3)n2)c(C)c1 [Compound 41]")
9.7

**Query** Given the entry Cn1nc(Nc2c(Br)cc(CCC#N)cc2Br)nc(Nc2ccc(C#N)cc2)c1=O [Compound 55] , report its measured pEC50 (-logEC50).
**Result** 9

----------
# maps each entry to its melting point

>>> result("N#CCCc1cc(Br)c(Nc2n[nH]c(=O)c(Nc3ccc(C#N)cc3)n2)c(Br)c1 [Compound 2]")
"339 to 340 °C"
>>> result("Cc1cc(CCC#N)cc(C)c1Nc1nc(Nc2ccc(C#N)cc2)c(=O)n(CC#N)n1")
"243 to 246 °C"
>>> result("N#Cc1ccc(Nc2nc(Nc3c(F)cc(I)cc3F)n[nH]c2=O)cc1 [Compound 1]")
"287 to 290 °C"

Query compound follows.
**Query** I have this compound here, Cc1cc(C)c(S(=O)(=O)c2n[nH]c(=O)c(Nc3ccc(C#N)cc3)n2)c(C)c1 [Compound 7] , and I need its recorded melting point.
**Result** 303 to 304 °C

----------
test system: HIV-1
Response key: Satisfied means pEC50 (-logEC50) >= 8; Not satisfied means pEC50 (-logEC50) < 8.

Below, 4 compounds whose answers are already recorded.
>>> discrete_label("Cc1cc(C)c(S(=O)(=O)c2n[nH]c(=O)c(Nc3ccc(C#N)cc3)n2)c(C)c1 [Compound 52]")
"Satisfied"
>>> discrete_label("N#CCCn1nc(Nc2c(F)cc(Br)cc2F)nc(Nc2ccc(C#N)cc2)c1=O [Compound 34]")
"Satisfied"
>>> discrete_label("Cc1cc(C)c(S(=O)(=O)c2n[nH]c(=O)c(Nc3ccc(C#N)cc3)n2)c(C)c1 [Compound 7]")
"Not satisfied"
>>> discrete_label("N#Cc1ccc(Nc2nc(Nc3c(F)cc(Br)cc3F)n[nH]c2=O)cc1 [Compound 30]")
"Satisfied"

Now look at this entry.
**Query** Test whether the compound N#Cc1ccc(Nc2nc(Nc3c(F)cc(I)cc3F)n[nH]c2=O)cc1 [Compound 36] records pEC50 (-logEC50) of 8 or higher.
**Result** Satisfied
